These entries and their values trace back to patent US11465983B2.

Entries below carry reported IC50 on USP7 (Homo sapiens, UniProt Q93009).

Examples with their reported IC50 follow.
> print(dat)
                                   compound                         testedsystem  reportedmeasurement
1  O=c1c2ccc(Cl)cc2ncn1CC1(O)CCN(c2ccccc2)CC1 [Compound 70]  USP7 (Homo sapiens, UniProt Q93009)              > 10 µM
2  CCN(Cc1ccccc1)C(=O)N1CCC(O)(Cn2cnc3cc(Cl)ccc3c2=O)CC1 [Compound 39]  USP7 (Homo sapiens, UniProt Q93009)          0.2 to 1 µM
3  Nc1ccc2c(=O)n(CC3(O)CCN(C(=O)CCc4ccccc4)CC3)cnc2c1 [Compound 57]  USP7 (Homo sapiens, UniProt Q93009)              > 10 µM

Ask: Check USP7 (Homo sapiens, UniProt Q93009) data and give IC50 for COC(Cc1ccccc1)C(=O)N1CCC(O)(Cn2cnc3cc(Cl)ccc3c2=O)CC1 (stereo not shown) [Compound 92] .
Reply: 1 to 10 µM

Ask: Provide IC50, system USP7 (Homo sapiens, UniProt Q93009), entry O=C(/C=C/c1ccccc1)N1CCC(O)(Cn2cnc3cc(Cl)ccc3c2=O)CC1 [Compound 26]
Reply: > 10 µM

Ask: Report IC50 on USP7 (Homo sapiens, UniProt Q93009) for this entry: O=C([C@@H](O)Cc1ccccc1)N1CCC(O)(Cn2cnc3cc(Cl)ccc3c2=O)CC1 [Compound 32]
Reply: > 10 µM

Ask: GET IC50 | system: USP7 (Homo sapiens, UniProt Q93009) | item: O=c1c2ccc(Cl)cc2ncn1CC1(O)CCN(c2cccnc2)CC1 [Compound 77]
Reply: > 10 µM

Ask: Consider the compound CN1CCN(CCC(=O)Nc2ccc3c(=O)n(CC4(O)CCN(C(=O)CC(c5ccccc5)c5ccccc5)CC4)cnc3c2)CC1 [Compound 48] tested on USP7 (Homo sapiens, UniProt Q93009); state its IC50.
Reply: < 0.2 µM

Ask: # return IC50 of CC(C)C(CC(=O)N1CCC(O)(Cn2cnc3cc(NC(=O)CCN4CCN(C)CC4)ccc3c2=O)CC1)c1ccccc1 (stereo not shown) [Compound 47] (system: USP7 (Homo sapiens, UniProt Q93009))
Reply: < 0.2 µM

Ask: Output reported IC50 of the compound C[C@H](CC(=O)N1CCC(O)(Cn2cnc3cc(Cl)ccc3c2=O)CC1)c1ccccc1 [Compound 1] on USP7 (Homo sapiens, UniProt Q93009).
Reply: < 0.2 µM

Ask: Jot down IC50 (USP7 (Homo sapiens, UniProt Q93009)) of O=C(NCCCCC(=O)N1CCC(O)(Cn2cnc3cc(Cl)ccc3c2=O)CC1)c1ccc2c(c1)CCCN2C(=O)CCl [Compound 19] .
Reply: 1 to 10 µM

---

# testedSystem: USP7 (Homo sapiens, UniProt Q93009)
# protocolText: Isothermal titration calorimetry, binding affinity of protein/ligand
# Set-up: made in house; host or cells: E. coli BL21 (DE3)
# assaySetup: ITC at 20° C.
# Sequence (Q93009 whole entry): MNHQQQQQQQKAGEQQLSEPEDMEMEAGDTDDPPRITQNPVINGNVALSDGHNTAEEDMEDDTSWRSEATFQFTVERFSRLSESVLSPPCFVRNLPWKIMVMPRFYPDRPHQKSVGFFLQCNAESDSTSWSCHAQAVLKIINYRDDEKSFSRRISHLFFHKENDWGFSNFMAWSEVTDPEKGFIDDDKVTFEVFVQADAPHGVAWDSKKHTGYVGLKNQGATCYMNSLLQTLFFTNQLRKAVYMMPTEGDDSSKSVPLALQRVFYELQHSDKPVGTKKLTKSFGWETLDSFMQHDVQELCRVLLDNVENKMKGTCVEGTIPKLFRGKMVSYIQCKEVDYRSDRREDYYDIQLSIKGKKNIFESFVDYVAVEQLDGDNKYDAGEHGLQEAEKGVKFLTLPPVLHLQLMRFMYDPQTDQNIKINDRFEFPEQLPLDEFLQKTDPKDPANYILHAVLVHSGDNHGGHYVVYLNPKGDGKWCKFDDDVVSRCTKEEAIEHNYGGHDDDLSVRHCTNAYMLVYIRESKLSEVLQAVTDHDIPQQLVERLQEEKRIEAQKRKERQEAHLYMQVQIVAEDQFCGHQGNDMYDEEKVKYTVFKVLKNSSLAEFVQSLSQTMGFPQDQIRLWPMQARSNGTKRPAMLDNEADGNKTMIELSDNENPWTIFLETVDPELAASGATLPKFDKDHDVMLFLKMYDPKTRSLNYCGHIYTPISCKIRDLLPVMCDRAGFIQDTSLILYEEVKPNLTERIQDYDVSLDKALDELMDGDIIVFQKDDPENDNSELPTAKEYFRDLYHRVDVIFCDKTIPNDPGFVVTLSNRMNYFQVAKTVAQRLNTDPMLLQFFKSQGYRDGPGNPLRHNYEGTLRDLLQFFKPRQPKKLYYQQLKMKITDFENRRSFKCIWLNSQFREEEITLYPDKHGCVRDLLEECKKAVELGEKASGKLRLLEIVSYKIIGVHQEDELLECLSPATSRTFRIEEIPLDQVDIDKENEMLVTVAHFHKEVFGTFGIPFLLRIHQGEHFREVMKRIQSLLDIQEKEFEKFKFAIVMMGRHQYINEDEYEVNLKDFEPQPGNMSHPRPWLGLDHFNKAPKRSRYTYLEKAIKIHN
measureName: n (stoichiometry)

Completed entries (count: 3):
> print(dat)
                                   compound                         testedsystem  reportedmeasurement
1  C[C@@H](CC(=O)N1CCC(O)(Cn2cnc3cc(Cl)ccc3c2=O)CC1)c1ccccc1  USP7 (Homo sapiens, UniProt Q93009)                 0.96
2  C[C@H](CC(=O)N1CCC(O)(Cn2cnc3cc(NC(=O)CCN4CCN(C)CC4)ccc3c2=O)CC1)c1ccccc1  USP7 (Homo sapiens, UniProt Q93009)                 1.06
3  CC(CC(=O)N1CCC(O)(Cn2cnc3cc(Cl)ccc3c2=O)CC1)c1ccccc1 (stereo not shown)  USP7 (Homo sapiens, UniProt Q93009)                 2.46

Now take the following compound into account.
Ask: For the compound O=C(CCc1ccccc1)N1CCC(O)(Cn2cnc3cc(Cl)ccc3c2=O)CC1 [Compound A, reference compound] , give its reported n (stoichiometry).
Reply: 0.98

---

pIC50: −log10 of the molar value.
// endpoint pIC50 / system USP7 (Homo sapiens)

Use these answered entries as a reference point.
> print(dat)
                                   compound  reportedmeasurement
1  C[C@@H](Cc1ccccc1)C(=O)N1CCC(O)(Cn2cnc3cc(Cl)ccc3c2=O)CC1 [Compound 73]               < 5.00
2  CC(C)(CC(=O)N1CCC(O)(Cn2cnc3cc(Cl)ccc3c2=O)CC1)c1ccccc1 [Compound 28]               < 5.00
3  O=C(CCc1ccc(Br)cc1)N1CCC(O)(Cn2cnc3cc(Cl)ccc3c2=O)CC1 [Compound 23]               < 5.00
4  CC(CC(=O)N1CCC(O)(Cn2cnc3cc(NC(=O)CCn4ccnc4)ccc3c2=O)CC1)c1ccccc1 (stereo not shown) [Compound 16]               > 6.70

Ask: Retrieve pIC50 on USP7 (Homo sapiens); query O=C(CC(c1ccccc1)c1ccccc1)N1CCC(O)(Cn2cnc3cc(Cl)ccc3c2=O)CC1 [Compound 82]
Reply: 5.00 to 6.00

Ask: Give pIC50; test system USP7 (Homo sapiens); compound O=C(C1CCc2ccccc2C1)N1CCC(O)(Cn2cnc3cc(Cl)ccc3c2=O)CC1 (stereo not shown) [Compound 25]
Reply: < 5.00

Ask: Report value only: pIC50, USP7 (Homo sapiens), CC(CC(=O)N1CCC(O)(Cn2cnc3cc(NC(=O)CCN4CCN(C)CC4)ccc3c2=O)CC1)c1ccccc1 (stereo not shown) [Compound 12]
Reply: 6.00 to 6.70

---

# testedSystem: UniProt Q93009
Each entry below carries its reported IC50.

> print(dat)
                                   molecule  reportedmeasurement
1  O=C(C1CCCN1c1ccccc1)N1CCC(O)(Cn2cnc3cc(Br)ccc3c2=O)CC1 (stereo not shown)              > 10 µM
2  C[C@@H](CC(=O)N1CCC(O)(Cn2cnc3cc(NC(=O)CCN4CCN(C)CC4)ccc3c2=O)CC1)c1ccccc1             < 0.2 µM
3  O=C(NCc1ccccc1)N1CCC(O)(Cn2cnc3cc(Cl)ccc3c2=O)CC1              > 10 µM

Now consider a different molecule.
Ask: Tell me its IC50 on UniProt Q93009: O=C(CCc1ccccc1)N1CCC(Cn2cnc3cc(Cl)ccc3c2=O)CC1
Reply: < 0.2 µM

---

# IC50 per entry for USP7 (Homo sapiens, UniProt Q93009)

Example compounds with recorded IC50:
> print(dat)
                                   compound  reportedmeasurement
1  CC(C)(C)C(=O)Nc1ccc2c(=O)n(CC3(O)CCN(C(=O)CCc4ccccc4)CC3)cnc2c1 [Compound 105]              > 10 µM
2  COc1ccc(CCC(=O)N2CCC(O)(Cn3cnc4cc(Cl)ccc4c3=O)CC2)cc1 [Compound 53]              > 10 µM
3  C=CC(=O)NCCCC(=O)N1CCC(O)(Cn2cnc3cc(Cl)ccc3c2=O)CC1 [Compound 46]              > 10 µM

Ask: Return reported IC50. Input compound: CCC(Cc1ccccc1)C(=O)N1CCC(O)(Cn2cnc3cc(Cl)ccc3c2=O)CC1 (centres unmarked) [Compound 94]
Reply: 1 to 10 µM

Ask: Tell me IC50 reported for C[C@H](CC(=O)N1CCC(O)(Cn2cnc3cc(N)ccc3c2=O)CC1)c1ccccc1 [Compound 101]
Reply: 0.2 to 1 µM

---

So I've got IC50 readings for USP7 (Homo sapiens, UniProt Q93009), take a look.

Answered examples (3):
> print(dat)
                                   compound  reportedmeasurement
1  C[C@H](CC(=O)N1CCC(O)(Cn2cnc3cc(NC(=O)CCN4CCN(C)CC4)ccc3c2=O)CC1)c1ccccc1             < 0.2 µM
2  O=C(CF)N[C@@H](Cc1ccccc1)C(=O)N1CCC(O)(Cn2cnc3cc(Cl)ccc3c2=O)CC1              > 10 µM
3  C[C@H](Cc1ccccc1)C(=O)N1CCC(O)(Cn2cnc3cc(Cl)ccc3c2=O)CC1          0.2 to 1 µM

Ask: Tell me its IC50 given CN1CCN(CCC(=O)Nc2ccc3c(=O)n(CC4(O)CCN(C(=O)C(Cc5ccccc5)c5ccccc5)CC4)cnc3c2)CC1 (stereo not drawn) as the entry.
Reply: > 10 µM

Ask: Answer with the recorded IC50 of O=C(CCc1cccc(Br)c1)N1CCC(O)(Cn2cnc3cc(Cl)ccc3c2=O)CC1 only.
Reply: > 10 µM

Ask: Identify measured IC50 associated with CC(=O)Nc1ccc2c(=O)n(CC3(O)CCN(C(=O)C[C@@H](C)c4ccccc4)CC3)cnc2c1
Reply: 0.2 to 1 µM

Ask: Give the value of IC50 reported for the following: O=C(COc1ccccc1)N1CCC(O)(Cn2cnc3cc(Cl)ccc3c2=O)CC1
Reply: > 10 µM

Ask: Kindly indicate its recorded IC50. Item: C[C@@H](c1ccccc1)N(C)C(=O)N1CCC(O)(Cn2cnc3cc(Cl)ccc3c2=O)CC1
Reply: > 10 µM

Ask: Look up and report measured IC50 for this entry: CC(=O)Nc1ccc2c(=O)n(CC3(O)CCN(C(=O)CCc4ccccc4)CC3)cnc2c1
Reply: 1 to 10 µM

Ask: Provide measured IC50 value, entry: O=C(C1Cc2ccccc2C1)N1CCC(O)(Cn2cnc3cc(Cl)ccc3c2=O)CC1
Reply: > 10 µM
